Data credit: ChEMBL document CHEMBL4425175

- target or system: Dual specificity protein kinase CLK1 (Homo sapiens) (UniProt P49759)
- Sequence (P49759 whole entry, looked up, the tested form may be a part): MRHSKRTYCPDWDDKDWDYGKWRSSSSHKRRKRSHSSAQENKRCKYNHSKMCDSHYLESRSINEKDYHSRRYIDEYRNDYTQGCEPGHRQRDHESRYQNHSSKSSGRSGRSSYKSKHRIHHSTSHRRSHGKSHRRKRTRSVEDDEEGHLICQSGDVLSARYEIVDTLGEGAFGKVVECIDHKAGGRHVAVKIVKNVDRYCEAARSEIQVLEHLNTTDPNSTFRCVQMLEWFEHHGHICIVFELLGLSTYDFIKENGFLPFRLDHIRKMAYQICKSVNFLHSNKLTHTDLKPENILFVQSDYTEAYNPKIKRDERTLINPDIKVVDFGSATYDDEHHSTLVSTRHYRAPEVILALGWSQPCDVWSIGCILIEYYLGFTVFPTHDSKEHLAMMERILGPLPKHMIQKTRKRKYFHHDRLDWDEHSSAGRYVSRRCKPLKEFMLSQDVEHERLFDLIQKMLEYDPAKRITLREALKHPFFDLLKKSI
- experiment: Inhibition of GST-fused human recombinant CLK1 expressed in Escherichia coli using GRSRSRSRSRSR peptide as substrate at 10 uM
Kind request: treat 30% as inclusive, so inhibition at 30% or higher is met, anything lower is not met.

- input smiles: "CCCCc1c2cnccc2c(N)c2nc(N)ncc12"
  label value: "met"
- input smiles: "Nc1ncc2c(Cc3ccccc3)c3cnccc3c(N)c2n1"
  label value: "not met"
- input smiles: "CCc1c2cnccc2c(N)c2nc(N)ncc12"
  label value: "met"
- input smiles: "Nc1ncc2cc3cnccc3c([N+](=O)[O-])c2n1"
  label value: "met"
- input smiles: "Nc1ncc2c(Br)c3cnccc3c([N+](=O)[O-])c2n1"
  label value: "not met"
- input smiles: "CCCCc1c2cnccc2c([N+](=O)[O-])c2nc(N)ncc12"
  label value: "met"

Item `Nc1ncc2c(Cc3ccccc3)c3cnccc3c([N+](=O)[O-])c2n1` with inhibition of 30% or above? met

Follow-up item: `CCc1c2cnccc2c([N+](=O)[O-])c2nc(N)ncc12` met

Follow-up item: `Nc1ncc2c(-c3ccccc3)c3cnccc3c(N)c2n1` met

Follow-up item: `Nc1ncc2cc3cnccc3c(N)c2n1` met

====

inhibition: recorded values
- target or system: Cyclin-dependent kinase 5/CDK5 activator 1 (Homo sapiens) (UniProt Q00535+Q15078)
- Sequence (Q00535 whole entry): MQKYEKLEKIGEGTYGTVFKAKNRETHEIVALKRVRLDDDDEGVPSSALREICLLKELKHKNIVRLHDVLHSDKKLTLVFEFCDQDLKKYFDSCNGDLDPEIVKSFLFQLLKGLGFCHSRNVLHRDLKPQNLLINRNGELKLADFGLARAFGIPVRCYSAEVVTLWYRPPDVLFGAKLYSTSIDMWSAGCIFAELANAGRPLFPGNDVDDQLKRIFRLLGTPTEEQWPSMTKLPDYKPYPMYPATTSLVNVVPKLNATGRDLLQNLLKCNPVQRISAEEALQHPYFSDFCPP
- Sequence (Q15078 99-307 partner limits assumed): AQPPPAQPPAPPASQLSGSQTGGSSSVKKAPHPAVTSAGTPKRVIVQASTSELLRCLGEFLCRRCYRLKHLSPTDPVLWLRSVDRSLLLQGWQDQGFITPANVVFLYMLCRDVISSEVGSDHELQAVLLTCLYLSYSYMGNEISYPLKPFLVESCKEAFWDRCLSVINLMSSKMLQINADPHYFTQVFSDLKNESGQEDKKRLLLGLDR
- experiment: Inhibition of human recombinant CDK5/p25 using histone1 as substrate at 10 uM after 30 mins in presence of [gamma33P] ATP by scintillation counting
- Type: protein-complex assay
The number alone won't do; follow it with the unit.

- input smiles: "Nc1ncc2c(-c3ccccc3)c3cnccc3c(N)c2n1"
  measured attribute: "inhibition"
  reported value: "33%"
- input smiles: "Nc1ncc2cc3cnccc3c([N+](=O)[O-])c2n1"
  measured attribute: "inhibition"
  reported value: "44%"
- input smiles: "Cc1c2cnccc2c([N+](=O)[O-])c2nc(N)ncc12"
  measured attribute: "inhibition"
  reported value: "88%"
- input smiles: "Nc1ncc2c(Cc3ccccc3)c3cnccc3c([N+](=O)[O-])c2n1"
  measured attribute: "inhibition"
  reported value: "2%"
- input smiles: "Nc1ncc2c(Br)c3cnccc3c([N+](=O)[O-])c2n1"
  measured attribute: "inhibition"
  reported value: "0%"

Turning to the following compound.
inhibition lookup needed for `Nc1ncc2c(-c3ccccc3)c3cnccc3c([N+](=O)[O-])c2n1` , thanks. 25%

====

- target or system: Glycogen synthase kinase-3 (Sus scrofa) (UniProt B2LUN4+I6LNT8)
- experiment: Inhibition of porcine brain GSKalpha/beta using GS-1 as substrate at 10 uM after 30 mins in presence of [gamma33P] ATP by scintillation counting
inhibition: recorded values
The number alone won't do; follow it with the unit.

- input smiles: "Nc1ncc2cc3cnccc3c(N)c2n1"
  inhibition: "54%"
- input smiles: "Nc1ncc2c(-c3ccccc3)c3cnccc3c([N+](=O)[O-])c2n1"
  inhibition: "74%"
- input smiles: "Cc1c2cnccc2c([N+](=O)[O-])c2nc(N)ncc12"
  inhibition: "78%"
- input smiles: "Cc1c2cnccc2c(N)c2nc(N)ncc12"
  inhibition: "43%"
- input smiles: "CCc1c2cnccc2c([N+](=O)[O-])c2nc(N)ncc12"
  inhibition: "98%"

inhibition lookup needed for `CCCCc1c2cnccc2c([N+](=O)[O-])c2nc(N)ncc12` , thanks. 100%

Follow-up item: `Nc1ncc2cc3cnccc3c([N+](=O)[O-])c2n1` 75%
